Source of measurements: ChEMBL document CHEMBL1146755

target: Vasopressin V2 receptor (Homo sapiens, UniProt P30518); experiment: Inhibition of [3H]AVP binding to recombinant human vasopressin V2 receptor
Sequence (P30518 whole entry): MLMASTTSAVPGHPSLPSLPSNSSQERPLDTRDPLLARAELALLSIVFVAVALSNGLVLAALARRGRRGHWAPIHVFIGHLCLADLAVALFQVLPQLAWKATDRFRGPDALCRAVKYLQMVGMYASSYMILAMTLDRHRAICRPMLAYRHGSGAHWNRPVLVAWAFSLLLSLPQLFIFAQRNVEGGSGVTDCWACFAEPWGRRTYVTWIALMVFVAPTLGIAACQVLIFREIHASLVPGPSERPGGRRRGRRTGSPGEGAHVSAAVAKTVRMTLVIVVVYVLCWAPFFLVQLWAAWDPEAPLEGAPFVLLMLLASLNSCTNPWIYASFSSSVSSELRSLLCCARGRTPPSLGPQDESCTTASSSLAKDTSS
ASSAY ENDPOINT: log10 Ki (log10 of the value in nM)

- COMPOUND: "O=C(Nc1ccc(C(=O)N2C[C@H]3COCCN3Cc3ccccc32)c(Cl)c1)c1ccc(F)cc1-c1ccccc1"
  log10 Ki: 0.28
- COMPOUND: "COc1ccc(-c2ccccc2C(=O)Nc2ccc(C(=O)N3C[C@H]4COCCN4Cc4ccccc43)c(Cl)c2)cc1"
  log10 Ki: 0.45
- COMPOUND: "O=C(Nc1ccc(C(=O)N2C[C@H]3COCCN3Cc3ccccc32)c(Cl)c1)c1ccccc1-c1ccc(O)cc1"
  log10 Ki: 0.62
- COMPOUND: "COc1ccc(-c2ccccc2)c(C(=O)Nc2ccc(C(=O)N3C[C@H]4COCCN4Cc4ccccc43)c(Cl)c2)c1"
  log10 Ki: 1.23
- COMPOUND: "COc1ccc(C(=O)Nc2ccc(C(=O)N3C[C@H]4COCCN4Cc4ccccc43)c(Cl)c2)c(-c2ccccc2)c1"
  log10 Ki: 0.62
- COMPOUND: "O=C(Nc1ccc(C(=O)N2C[C@H]3COCCN3Cc3ccccc32)c(Cl)c1)c1ccccc1-c1ccccc1"
  log10 Ki: -0.05
- COMPOUND: "COc1cc(NC(=O)c2ccccc2-c2ccccc2)ccc1C(=O)N1CC2CSCCN2Cc2ccccc21 (stereo not drawn)"
  log10 Ki: 1.18
- COMPOUND: "Cc1ccc(F)cc1C(=O)Nc1ccc(C(=O)N2C[C@H]3COCCN3Cc3ccccc32)c(Cl)c1"
  log10 Ki: 0.45
- COMPOUND: "O=C(Nc1ccc(C(=O)N2C[C@H]3COCCN3Cc3ccccc32)c(Cl)c1)c1cc(F)ccc1-c1ccccc1"
  log10 Ki: 1.04
- COMPOUND: "O=C(Nc1ccc(C(=O)N2C[C@H]3COCCN3Cc3ccccc32)cc1)c1ccccc1-c1ccccc1"
  log10 Ki: 0.57
- COMPOUND: "O=C(Nc1ccc(C(=O)N2C[C@H]3COCCN3Cc3ccccc32)c(Cl)c1)c1cc(O)ccc1-c1ccccc1"
  log10 Ki: 1.11
- COMPOUND: "O=C(Nc1ccc(C(=O)N2CC3CSCCN3Cc3cccc(Cl)c32)cc1)c1ccccc1-c1ccccc1 (stereo not drawn)"
  log10 Ki: 1.00
- COMPOUND: "Cc1ccc(F)cc1C(=O)Nc1ccc(C(=O)N2Cc3cccn3Cc3ccccc32)c(Cl)c1"
  log10 Ki: 0.36
